B1: SCARA5 (parent)
chain: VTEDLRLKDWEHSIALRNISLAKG

# Variants of: B1
# assay-details: protein stability index of a GFP-peptide fusion (GPS, HEK-293T) (PSI 1-6); higher = more stable;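 note: lentivirally expressed fusions sorted by FACS into six bins by GFP to DsRed ratio, PSI derived from sequencing read proportions per bin multiplied by bin number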
# condition-context: c terminus: a fixed tail appended
Short version: protein stability index at least 3 is Criterion met, less is Criterion not met.

[[record]]
var = "G24S"
category = "Criterion met"

[[record]]
var = "G24H"
category = "Criterion met"

[[record]]
var = "L16H"
category = "Criterion met"

[[record]]
var = "L5Q"
category = "Criterion met"

[[record]]
var = "K23P"
category = "Criterion met"

[[record]]
var = "N18W"
category = "Criterion not met"

[[record]]
var = "H12V"
category = "Criterion not met"

[[record]]
var = "V1S"
category = "Criterion met"

[[record]]
var = "I19S"
category = "Criterion met"

[[record]]
var = "E3L"
category = "Criterion not met"

[[record]]
var = "K8C"
category = "Criterion met"

[[record]]
var = "L16F"
category = "Criterion met"

[[record]]
var = "K8F"
category = "Criterion not met"

[[record]]
var = "A15I"
category = "Criterion not met"

[[record]]
var = "I14L"
category = "Criterion met"

[[record]]
var = "D4S"
category = "Criterion not met"

[[record]]
var = "A15T"
category = "Criterion met"

[[record]]
var = "L5I"
category = "Criterion met"

[[record]]
var = "D4E"
category = "Criterion met"

[[record]]
var = "I19K"
category = "Criterion met"

[[record]]
var = "V1T"
category = "Criterion met"

[[record]]
var = "K23Y"
category = "Criterion not met"

[[record]]
var = "T2N"
category = "Criterion met"

[[record]]
var = "I14G"
category = "Criterion met"

[[record]]
var = "G24V"
category = "Criterion not met"

[[record]]
var = "L16T"
category = "Criterion met"

[[record]]
var = "D4I"
category = "Criterion not met"

[[record]]
var = "R6Q"
category = "Criterion met"

[[record]]
var = "L21V"
category = "Criterion met"

[[record]]
var = "R6D"
category = "Criterion met"

[[record]]
var = "I19Q"
category = "Criterion met"

[[record]]
var = "L5W"
category = "Criterion met"

[[record]]
var = "R6F"
category = "Criterion met"

[[record]]
var = "V1I"
category = "Criterion met"

[[record]]
var = "G24D"
category = "Criterion met"

[[record]]
var = "N18A"
category = "Criterion not met"

[[record]]
var = "S20Y"
category = "Criterion not met"

[[record]]
var = "D9I"
category = "Criterion not met"

[[record]]
var = "L5N"
category = "Criterion met"

[[record]]
var = "I14T"
category = "Criterion met"

[[record]]
var = "D9K"
category = "Criterion not met"

[[record]]
var = "A15L"
category = "Criterion not met"

[[record]]
var = "K8V"
category = "Criterion not met"

[[record]]
var = "I19D"
category = "Criterion met"

[[record]]
var = "V1F"
category = "Criterion not met"

[[record]]
var = "L7S"
category = "Criterion met"

[[record]]
var = "G24W"
category = "Criterion not met"

[[record]]
var = "S13H"
category = "Criterion met"

[[record]]
var = "L21F"
category = "Criterion met"

[[record]]
var = "S13I"
category = "Criterion not met"

[[record]]
var = "D4A"
category = "Criterion not met"

[[record]]
var = "T2S"
category = "Criterion met"

[[record]]
var = "L16Q"
category = "Criterion met"

[[record]]
var = "E3T"
category = "Criterion not met"

[[record]]
var = "A15S"
category = "Criterion met"

[[record]]
var = "S13K"
category = "Criterion met"

[[record]]
var = "W10V"
category = "Criterion met"

[[record]]
var = "S13F"
category = "Criterion not met"

[[record]]
var = "K23E"
category = "Criterion met"

[[record]]
var = "R17T"
category = "Criterion met"

[[record]]
var = "E11Q"
category = "Criterion met"

[[record]]
var = "W10H"
category = "Criterion met"

[[record]]
var = "D9Q"
category = "Criterion met"

[[record]]
var = "K8E"
category = "Criterion met"

[[record]]
var = "L5E"
category = "Criterion met"

[[record]]
var = "I19V"
category = "Criterion met"

[[record]]
var = "N18K"
category = "Criterion met"

[[record]]
var = "S13D"
category = "Criterion met"

[[record]]
var = "R6W"
category = "Criterion not met"

[[record]]
var = "L21S"
category = "Criterion met"

[[record]]
var = "I19W"
category = "Criterion not met"

[[record]]
var = "N18R"
category = "Criterion met"

[[record]]
var = "K8Y"
category = "Criterion not met"

[[record]]
var = "L16I"
category = "Criterion met"

[[record]]
var = "W10G"
category = "Criterion met"

[[record]]
var = "I14V"
category = "Criterion met"

[[record]]
var = "A22V"
category = "Criterion met"

[[record]]
var = "L7G"
category = "Criterion met"

[[record]]
var = "A15G"
category = "Criterion met"

[[record]]
var = "W10K"
category = "Criterion met"

[[record]]
var = "D9H"
category = "Criterion not met"

